Measured Ratio IC50, listed per entry.
Species: Homo sapiens
Assay: Selectivity ratio of IC50 for human placental 17beta-HSD1 to IC50 for human placental 17beta-HSD2

// solved cases for Ratio IC50 follow
[[record]]
moleculesmiles = "CN(Cc1cccc(O)c1)C(=O)c1ccc(-c2ccc(O)cc2)s1"
quantityname = "Ratio IC50"
observed = 15

[[record]]
moleculesmiles = "CN(Cc1cccc(O)c1)C(=O)c1ccc(-c2cccc(O)c2)s1"
quantityname = "Ratio IC50"
observed = 14

[[record]]
moleculesmiles = "CN(Cc1cccc(O)c1)C(=O)c1ccc(-c2cccc(N(C)C)c2)s1"
quantityname = "Ratio IC50"
observed = 75


Ratio IC50 in this record for COc1cccc(-c2ccc(C(=O)N(C)Cc3cccc(O)c3)s2)c1F : 73

Ratio IC50 in this record for COc1cccc(CN(C)C(=O)c2ccc(-c3cccc(C)c3)cc2)c1 : > 375

---

Species: Homo sapiens
Assay: Selectivity ratio of IC50 for human placental 17beta-HSD1 to IC50 for human placental 17beta-HSD2
quantityName: Ratio IC50
Enter the number alone.

[[record]]
moleculesmiles = "Cc1cccc(-c2ccc(C(=O)N(C)Cc3cccc(O)c3)s2)c1"
observed = 65

[[record]]
moleculesmiles = "CN(Cc1cccc(O)c1)C(=O)c1ccc(-c2ccccc2O)s1"
observed = 20

[[record]]
moleculesmiles = "CN(Cc1cccc(O)c1)C(=O)c1ccc(-c2cccc(F)c2)s1"
observed = 10


Ratio IC50 in this record for CN(Cc1cccc(O)c1)C(=O)c1cccc(-c2cccc(O)c2)c1 : 8

---

Measured inhibition, listed per entry.
Molecular target: 17-beta-hydroxysteroid dehydrogenase type 2 (Homo sapiens)
Test: Inhibition of human placental 17beta-HSD2 assessed as formation of [2,4,6,7-3H]-estrone using [2,4,6,7-3H]-estradiol as substrate at 1 uM after 20 mins by radio flow detector-based HPLC analysis in presence of NAD+ as cofactor

[[record]]
moleculesmiles = "C[C@]12CC[C@@H]3c4ccc(O)cc4CC[C@H]3[C@@H]1CC[C@@]21CCCC(=O)O1"
targetdesc = "17-beta-hydroxysteroid dehydrogenase type 2 (Homo sapiens)"
observed = "65%"

[[record]]
moleculesmiles = "COc1ccc(-c2cccc(C(=O)N(C)Cc3cccc(OC)c3)c2)cc1"
targetdesc = "17-beta-hydroxysteroid dehydrogenase type 2 (Homo sapiens)"
observed = "11%"

[[record]]
moleculesmiles = "COc1cccc(CN(C)C(=O)c2ccc(-c3ccccc3OC)s2)c1"
targetdesc = "17-beta-hydroxysteroid dehydrogenase type 2 (Homo sapiens)"
observed = "49%"


inhibition in this record for CN(C(=O)Cc1cccc(O)c1)c1cccc(-c2ccc(O)cc2)c1 : 39%

---

Target: 17-beta-hydroxysteroid dehydrogenase type 1 (Homo sapiens, UniProt P14061)
Sequence (P14061 whole entry): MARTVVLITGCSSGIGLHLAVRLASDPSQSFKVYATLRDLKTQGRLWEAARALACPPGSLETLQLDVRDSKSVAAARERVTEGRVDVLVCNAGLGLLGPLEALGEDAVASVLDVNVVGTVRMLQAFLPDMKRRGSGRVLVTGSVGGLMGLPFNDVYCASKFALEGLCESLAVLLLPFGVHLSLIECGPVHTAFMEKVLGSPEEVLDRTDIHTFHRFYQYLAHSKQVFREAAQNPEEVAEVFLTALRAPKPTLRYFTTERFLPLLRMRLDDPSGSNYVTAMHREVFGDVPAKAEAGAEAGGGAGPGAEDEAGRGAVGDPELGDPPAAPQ
quantityName: pIC50
Formally, pIC50 is defined as -log10 of the concentration c, with c in mol/L.

pIC50 of CN(Cc1cccc(O)c1)C(=O)c1ccc(-c2cccc(O)c2)s1 , assay on 17-beta-hydroxysteroid dehydrogenase type 1 (Homo sapiens, UniProt P14061), is 5.26
